assay: Pulmonary tropism, Ibuprofen lung/plasma concentration ratio; type: in vivo, Charles River albino rats; settings: rat, lung, po; 1 hour; per os, Ibuprofen 27 mg/kg, AFP 860 50 mg/kg; read-out: Ibuprofen concentration ratio between lung and plasma
MEASURED_PARAMETER: Kp at 1 h
API note: the answer field is a bare number with no unit suffix.

Exercise: Name the reported Kp at 1 h value associated with the molecule CC(C)Cc1ccc(C(C)C(=O)O)cc1 (stereo not shown) [Ibuprofen, 2-(p-isobutylphenyl)propionic acid, reference compound]
Solution: 0.3

====

experiment: Acute toxicity (Litchfield and Wilcoxon's Method), mouse; conditions: in vivo, po, per os
MEASURED_PARAMETER: LD50 (mg/kg)
Write down the numeric answer in mg/kg and omit the unit.

Exercise: What does the data say about its LD50? Entry: COc1ccccc1OCC(O)COC(=O)C(C)c1ccc(CC(C)C)cc1 (stereo not shown)
Solution: 1850
